- testDetails: cytotoxicity to SK-OV-3 cells
- Type: cell-based
- reportedConditions: human, SK-OV-3 cells (ovary carcinoma)
resultType: IC50 at 48 h

C[C@@]12CC[C@@H](O)[C@]3(C)C4=CC(=O)OC[C@]45O[C@@H]5[C@@H](OC1=O)C23 (some centres unmarked) | > 10 µg/mL

Please look at the following compound next.
Short answer for C=C1C(O)CC2[C@](C)(CCC[C@]2(C)C(=O)O)C1CC(=O)O (some centres unmarked) : IC50 at 48 h was > 10 µg/mL

###

- System: lettuce (Lactuca sativa cv. L. Iceberg)
- testDetails: initial phytotoxicity bioassay, lettuce
- Type: in vivo
- reportedConditions: 0.01 mg/mL, visual scale 0 to 5, 0 = no effect, 5 = no growth
resultType: Phytotoxic activity ranking
Reply with the value as a number alone.

C[C@]12CCC[C@](C)(C(=O)O)[C@@H]1C=C[C@]1(O)COC(=O)C[C@H]21 [Compound 12, oidiolactone-E] | 2
C=C1C(O)CC2[C@](C)(CCC[C@]2(C)C(=O)O)C1CC(=O)O (stereo partly shown) [Compound 13] | 0
C[C@@]12CC[C@@H](O)[C@]3(C)C(=O)O[C@H](C=C4COC(=O)C=C41)C23 (stereo partly shown) [Compound 8] | 0
C[C@@]12C[C@@H](O)C[C@]3(C)C4=CC(=O)OCC4=C[C@@H](OC1=O)C23 (stereo partly shown) [Compound 9] | 2
C[C@]12C=C[C@H](O)[C@]3(C)C(=O)O[C@@H](C13)[C@H]1O[C@]13COC(=O)C=C32 (stereo partly shown) [Compound 1] | 5

Assay lettuce (Lactuca sativa cv. L. Iceberg), sample C[C@@]12C[C@@H](O)C[C@]3(C)C4=CC(=O)OC[C@]45O[C@@H]5[C@@H](OC1=O)C23 (stereo partly shown) [Compound 4] , Phytotoxic activity ranking read: 3

Record for C[C@]12CC[C@@H](O)[C@]3(C)C(=O)O[C@@H](C13)[C@H]1O[C@]13COC(=O)C=C32 (stereo partly shown) [Compound 3] under target or system lettuce (Lactuca sativa cv. L. Iceberg): Phytotoxic activity ranking reported as 0

###

- testDetails: cytotoxicity to BT-549 cells
- Type: cell-based
- reportedConditions: human, BT-549 cells (breast ductal carcinoma)
resultType: IC50 at 48 h

C=C1C(O)CC2[C@](C)(CCC[C@]2(C)C(=O)O)C1CC(=O)O (some centres unmarked) | > 10 µg/mL

Consider the record given below.
// C[C@@]12CC[C@@H](O)[C@]3(C)C4=CC(=O)OC[C@]45O[C@@H]5[C@@H](OC1=O)C23 (some centres unmarked) : IC50 at 48 h value = > 10 µg/mL

###

Recorded IC50 at 48 h, one value per entry.
- testDetails: cytotoxicity to KB cells
- Type: cell-based
- reportedConditions: human

C[C@]12C=CC[C@]3(C)C(=O)O[C@@H](C13)[C@H]1O[C@]13COC(=O)C=C32 (stereo partly drawn) | > 10 µg/mL

Lab book: IC50 at 48 h of C[C@]12CC[C@@H](O)[C@]3(C)C(=O)O[C@@H](C13)[C@H]1O[C@]13COC(=O)C=C32 (stereo partly drawn) noted as > 10 µg/mL

Noted for C[C@@]12CC[C@@H](O)[C@]3(C)C(=O)O[C@H](C=C4COC(=O)C=C41)C23 (stereo partly drawn) : its IC50 at 48 h reads > 10 µg/mL
